These measurements were taken from patent US20240043505A1.

Consider the following binders; for each one, report its ELISA affinity.
# TARGET DESC: SARS-CoV-2 spike receptor-binding domain (RBD) (SARS-CoV-2, UniProt P0DTC2 319-541)
# TEST: indirect ELISA, RBD coated on plate, 4PL fit
Dear colleague, please return just the value in nM, with no unit written.

query: Item Nb46 (VHH) VHH: QVQLVESGGGLVQAGGSLRLSCAVSGSTLGINAIGWYRQPPGKQRELVASISSLGTTLYAESVKGRFAISRDNAKNTGYLQMNSLKPDDTAVYYCNMRTPYMRDYWGQGTQVTVSS has what recorded ELISA affinity?
result: 25.9

query: For the binder shown here, Nb39 (VHH) VHH: QVQLVESGGGLVQAGGSLRLSCAASGRTFRFSAIDWYRQAPGQQREFVASISTSGRISYGHFVKGRFTISRDNAKNTMYLQMNSLKPEDTAVYYCHLAQPDVFGGGDYWGQGTQVTVSS , give the reported ELISA affinity.
result: 1.49

query: What value of ELISA affinity has been recorded for this entry: Nb55 (VHH) VHH: DVQLVESGGGLVQAGGSLRLSCAASGRTFGSTMAWFRQAPGKERDFVAAITWSADRISYADSVKGRFTISRDNDKNIVHLQMNSLKPEDTAVYVCAARASSNTYDDPRSFAFWGQGTQVTVSS
result: 2.24

query: Would you kindly share the measured ELISA affinity for Nb42 (VHH) VHH: HVQLVESGGGLVQAGESLRLSCVASGSIFSINAMGWFRQAPGKQRELVASISNIGTTIYAESVKGRFTISRDNAKNTADLQMNSLKPEDTAIYYCNLRQGCSYNGCDEYWGQGTQVTVSS ?
result: 0.66

query: So what does the record say about ELISA affinity for Nb102 (VHH) VHH: QVQLVESGGGLVQAGGSLRLSCAASGRTFSNSHMGWFRQAPGKEREFVAVISRSGGSTLYADSVKGRFTISRDNAKNTVYLQMNSLKPEDTAVYYCAASRTAGLTSNRSLYDYWGRGTQVTVSS ?
result: 28.4

query: Entry under review: Nb94 (VHH) VHH: QVQLVESGGGLVQAGGSLRLSCTASGGTFRSFTMAWFRQAPGKEREFVATLSWTGVGTYYADSVKGRFTISRDIAKNTVYLEMNSLIPEDTAVYYCAASPYTYSLLSRTGDYGYWGQGTQVTVSS . Reported ELISA affinity?
result: 0.5

query: Bench note: what ELISA affinity did Nb48 (VHH) VHH: HVQLVESGGGLVQAGGSLRLSCAASGSIFRHYNMGWFRQAPGKEREFVSAISWTNIGTYYADSVKGRFSISRDNNRNTAYLEMNSLKPEDTAVYYCAADRSEFGSRLYSDENEYDYWGQGTQVTVSS show?
result: 1.08

query: Quick one: ELISA affinity for Nb89 (VHH) VHH: HVQLVESGGGLVQAGGSLRLSCAASGGTFTTFRMAWFRQTPGKEREFVAASSWGFVNYADPVKGRFTISRDNAKNTVYLEMSSLKTEDTAVYYCAARNPGTGQYDYWGQGTQVTVSS ?
result: 1.09

query: Give the measured ELISA affinity of Nb95 (VHH) VHH: QVQLVESGGGLVQAGGSLRLSCAASGRTFSSYSMGWFRQAQGKEREFVATINGNGRDTYYTNSVKGRFTISRDDATNTVYLQMNSLKPEDTAIYYCAADKDVYYGYTSFPNEYEYWGQGTQVTVSS .
result: 2.28

query: Look at this binder and give its reported ELISA affinity. Nb91 (VHH) VHH: HVQLVESGGGLVQPGGSLRLSCAASGLTLNDYAIGWFRQAPGKEREGVSCISSSDGTTYYADSVKGRFTISRDNAKNTVYLQMNSLKPEDTAVYYCATDIAPFYCSWPLRTRLVEYWGQGTQVTVSS
result: 1.28

query: Can you share its ELISA affinity? I mean this binder: Nb62 (VHH) VHH: HVQLVESGGGLVQAGGSLRLTCAASGRTFSSSTMDMGWFRQAPGKEREFVAVDAWNDGRTYYADSVKGRFTISRDNAKNTLYLQMNSLKPGDTAVYYCHAVDVSVGGDYWGQGTQVTVSS
result: 85.7

query: If you can, please state the reported ELISA affinity value of Nb37 (VHH) VHH: QVQLVESGGGLVQTGGSLRLSCAASGRTFSNYVMGWFRQAPGKEREFVSSIEWNSENTFYANSVKGRFTISRDNAKNTVYLQMNSLKAEDTAVYYCAADRGSSYYYTRASEYTYWGQGTQVTVSS .
result: 0.38

query: I'd like to know its ELISA affinity. The binder in question is Nb36 (VHH) VHH: HVQLVESGGGLVQAGGSLTLTCAASGRTFSSETMDMGWFRQAPGKEREFVAADSWNDGSTYYADSVKGRFTISRDSAKNTLYLQMNSLKPEDTAVYYCAAETYSIYEKDDSWGYWGQGTQVTVSS
result: 1.04

query: Which ELISA affinity is listed for Nb10 (VHH) VHH: DVQLVESGGGLVQAGGSLKLSCTASESTFNFNHIDWYRQAPGKQRESVAVITNTDVTNYADSVKGRFTISRDNAKNTVYLQMNSLKPEDTAVYLCNAWRFGPTGVKVDYWGQGTQVTVSS ?
result: 0.24

query: Which ELISA affinity value belongs to Nb107 (VHH) VHH: HVQLVESGGGLVQAGGSLRLSCAASGRAIGIHRMAWFRQAPGKERAFVAAIQWTGDMPTYADSLKGRFTISADNAKNTVSLQMTSLKPDDTAVYYCAARSATTALYDYWGQGTQVTVSS ?
result: 0.76
